Experiment: Plasma protein binding assay (rapid equilibrium dialysis)
Format: in vitro ADME
Conditions: 4 h, 10000 ng/mL
TEST READOUT: ƒu
A complete answer gives the number and then names the unit.

Which ƒu reading was recorded for the compound CO[C@H]1/C=C/O[C@@]2(C)Oc3c(C)c(O)c4c(c3C2=O)C2=NC3(CCN(CC(C)C)CC3)NC2=C(NC(=O)/C(C)=C/C=C/[C@H](C)[C@H](O)[C@@H](C)[C@@H](O)[C@@H](C)[C@H](OC(=O)NC2CCN(C(C)C)CC2)[C@@H]1C)C4=O ?
7.5%

Let us now turn to CO[C@H]1/C=C/O[C@@]2(C)Oc3c(C)c(O)c4c(c3C2=O)C2=NC3(CCN(CC(C)C)CC3)NC2=C(NC(=O)/C(C)=C/C=C/[C@H](C)[C@H](O)[C@@H](C)[C@@H](O)[C@@H](C)[C@H](OC(=O)NC2CCN(C)CC2)[C@@H]1C)C4=O
10.8%

Let us now turn to CO[C@H]1/C=C/O[C@@]2(C)Oc3c(C)c(O)c4c(c3C2=O)C2=NC3(CCN(CC(C)C)CC3)NC2=C(NC(=O)/C(C)=C/C=C/[C@H](C)[C@H](O)[C@@H](C)[C@@H](O)[C@@H](C)[C@H](OC(=O)Nc2cncs2)[C@@H]1C)C4=O
3.0%

Let us now turn to CO[C@H]1/C=C/O[C@@]2(C)Oc3c(C)c(O)c4c(c3C2=O)C2=NC3(CCN(CC(C)C)CC3)NC2=C(NC(=O)/C(C)=C\C=C\[C@H](C)[C@H](O)[C@@H](C)[C@@H](O)[C@@H](C)[C@H](OC(C)=O)[C@@H]1C)C4=O [rifabutin, reference compound]
4.5%

Let us now turn to CCN1CCC(NC(=O)O[C@H]2[C@H](C)[C@H](O)[C@H](C)[C@@H](O)[C@@H](C)/C=C/C=C(\C)C(=O)NC3=C4NC5(CCN(CC(C)C)CC5)N=C4c4c(c(O)c(C)c5c4C(=O)[C@@](C)(O/C=C/[C@H](OC)[C@H]2C)O5)C3=O)CC1
10.4%

Let us now turn to CO[C@H]1/C=C/O[C@@]2(C)Oc3c(C)c(O)c4c(c3C2=O)C2=NC3(CCN(CC(C)C)CC3)NC2=C(NC(=O)/C(C)=C/C=C/[C@H](C)[C@H](O)[C@@H](C)[C@@H](O)[C@@H](C)[C@H](OC(=O)Nc2ccnnc2)[C@@H]1C)C4=O
6.1%

Let us now turn to CO[C@H]1/C=C/O[C@@]2(C)Oc3c(C)c(O)c4c(c3C2=O)C2=NC3(CCN(CC(C)C)CC3)NC2=C(NC(=O)/C(C)=C/C=C/[C@H](C)[C@H](O)[C@@H](C)[C@@H](O)[C@@H](C)[C@H](OC(=O)Nc2ccccn2)[C@@H]1C)C4=O
0.9%

###

Experiment: Plasma protein binding assay (rapid equilibrium dialysis)
Assay type: in vitro ADME
Conditions: plasma
Assignment: determine reported plasma unbound fraction for the given molecules.
Output spec: scalar in %, unitless text.

Which plasma unbound fraction reading was recorded for the molecule CO[C@H]1/C=C/O[C@@]2(C)Oc3c(C)c(O)c4c(c3C2=O)C2=NC3(CCN(CC(C)C)CC3)NC2=C(NC(=O)/C(C)=C/C=C/[C@H](C)[C@H](O)[C@@H](C)[C@@H](O)[C@@H](C)[C@H](OC(=O)Nc2ccccc2-c2ccccc2)[C@@H]1C)C4=O ?
0.02

Let us now turn to CO[C@H]1/C=C/O[C@@]2(C)Oc3c(C)c(O)c4c(c3C2=O)C2=NC3(CCN(CC(C)C)CC3)NC2=C(NC(=O)/C(C)=C/C=C/[C@H](C)[C@H](O)[C@@H](C)[C@@H](O)[C@@H](C)[C@H](OC(=O)c2cccc(C(F)(F)F)c2)[C@@H]1C)C4=O
0

Let us now turn to CO[C@H]1/C=C/O[C@@]2(C)Oc3c(C)c(O)c4c(c3C2=O)C2=NC3(CCN(CC(C)C)CC3)NC2=C(NC(=O)/C(C)=C/C=C/[C@H](C)[C@H](O)[C@@H](C)[C@@H](O)[C@@H](C)[C@H](OC(=O)Nc2ccccc2C)[C@@H]1C)C4=O
0.13

Let us now turn to CO[C@H]1/C=C/O[C@@]2(C)Oc3c(C)c(O)c4c(c3C2=O)C2=NC3(CCN(CC(C)C)CC3)NC2=C(NC(=O)/C(C)=C/C=C/[C@H](C)[C@H](O)[C@@H](C)[C@@H](O)[C@@H](C)[C@H](OC(=O)c2cnccn2)[C@@H]1C)C4=O
6.96

###

Test system: Mycobacterium abscessus
Test: MIC against Mycobacterium abscessus (strain not given)
Assay type: cell-based
Settings: Mycobacteroides abscessus, 72 h; Table 22; read-out: MICMab
Criterion: MIC strictly under 0.04 µM. Met: true (1). Not met: false (0).

Quick check: MIC of CO[C@H]1/C=C/O[C@@]2(C)Oc3c(C)c(O)c4c(c3C2=O)C2=NC3(CCN(CC(C)C)CC3)NC2=C(NC(=O)/C(C)=C/C=C/[C@H](C)[C@H](O)[C@@H](C)[C@@H](O)[C@@H](C)[C@H](OC(=O)c2ccccc2)[C@@H]1C)C4=O under 0.04 µM?
false (0)

Let us now turn to CO[C@H]1/C=C/O[C@@]2(C)Oc3c(C)c(O)c4c(c3C2=O)C2=NC3(CCN(CC(C)C)CC3)NC2=C(NC(=O)/C(C)=C/C=C/[C@H](C)[C@H](O)[C@@H](C)[C@@H](O)[C@@H](C)[C@H](OC(=O)c2cccnc2)[C@@H]1C)C4=O
true (1)

Let us now turn to CO[C@H]1/C=C/O[C@@]2(C)Oc3c(C)c(O)c4c(c3C2=O)C2=NC3(CCN(CC(C)C)CC3)NC2=C(NC(=O)/C(C)=C/C=C/[C@H](C)[C@H](O)[C@@H](C)[C@@H](O)[C@@H](C)[C@H](OC(=O)Nc2cccnn2)[C@@H]1C)C4=O
true (1)

Let us now turn to CO[C@H]1/C=C/O[C@@]2(C)Oc3c(C)c(O)c4c(c3C2=O)C2=NC3(CCN(CC(C)C)CC3)NC2=C(NC(=O)/C(C)=C/C=C/[C@H](C)[C@H](O)[C@@H](C)[C@@H](O)[C@@H](C)[C@H](OC(=O)Nc2ccncn2)[C@@H]1C)C4=O
true (1)

###

Assay: Plasma protein binding assay (rapid equilibrium dialysis)
Assay type: in vitro ADME
Returns the class for an entry based on its ƒu. Class ranges: lowest: < 0.02%; middle: ≥ 0.02% and < 7%; highest: ≥ 7%

Using the reported ƒu, which band applies to CO[C@H]1/C=C/O[C@@]2(C)Oc3c(C)c(O)c4c(c3C2=O)C2=NC3(CCN(CC(C)C)CC3)NC2=C(NC(=O)/C(C)=C/C=C/[C@H](C)[C@H](O)[C@@H](C)[C@@H](O)[C@@H](C)[C@H](OC(=O)c2ccc(C(F)(F)F)cc2)[C@@H]1C)C4=O [UMN13] ?
lowest

Let us now turn to CO[C@H]1/C=C/O[C@@]2(C)Oc3c(C)c(O)c4c(c3C2=O)C2=NC3(CCN(CC(C)C)CC3)NC2=C(NC(=O)/C(C)=C/C=C/[C@H](C)[C@H](O)[C@@H](C)[C@@H](O)[C@@H](C)[C@H](OC(=O)Nc2ccccc2C)[C@@H]1C)C4=O [UMN39]
middle

Let us now turn to CO[C@H]1/C=C/O[C@@]2(C)Oc3c(C)c(O)c4c(c3C2=O)C2=NC3(CCN(CC(C)C)CC3)NC2=C(NC(=O)/C(C)=C/C=C/[C@H](C)[C@H](O)[C@@H](C)[C@@H](O)[C@@H](C)[C@H](OC(=O)c2cccnn2)[C@@H]1C)C4=O [UMN111]
highest

Let us now turn to CO[C@H]1/C=C/O[C@@]2(C)Oc3c(C)c(O)c4c(c3C2=O)C2=NC3(CCN(CC(C)C)CC3)NC2=C(NC(=O)/C(C)=C/C=C/[C@H](C)[C@H](O)[C@@H](C)[C@@H](O)[C@@H](C)[C@H](OC(=O)Nc2cnccn2)[C@@H]1C)C4=O [UMN120]
middle

Let us now turn to CO[C@H]1/C=C/O[C@@]2(C)Oc3c(C)c(O)c4c(c3C2=O)C2=NC3(CCN(CC(C)C)CC3)NC2=C(NC(=O)/C(C)=C/C=C/[C@H](C)[C@H](O)[C@@H](C)[C@@H](O)[C@@H](C)[C@H](OC(=O)c2ccc(-c3ccccc3)cc2)[C@@H]1C)C4=O [UMN28]
lowest

Let us now turn to CO[C@H]1/C=C/O[C@@]2(C)Oc3c(C)c(O)c4c(c3C2=O)C2=NC3(CCN(CC(C)C)CC3)NC2=C(NC(=O)/C(C)=C/C=C/[C@H](C)[C@H](O)[C@@H](C)[C@@H](O)[C@@H](C)[C@H](OC(=O)C2CCC2)[C@@H]1C)C4=O [UMN80]
middle

Let us now turn to CO[C@H]1/C=C/O[C@@]2(C)Oc3c(C)c(O)c4c(c3C2=O)C2=NC3(CCN(CC(C)C)CC3)NC2=C(NC(=O)/C(C)=C/C=C/[C@H](C)[C@H](O)[C@@H](C)[C@@H](O)[C@@H](C)[C@H](OC(=O)c2cccc(Cl)c2)[C@@H]1C)C4=O [UMN27]
lowest

Let us now turn to CO[C@H]1/C=C/O[C@@]2(C)Oc3c(C)c(O)c4c(c3C2=O)C2=NC3(CCN(CC(C)C)CC3)NC2=C(NC(=O)/C(C)=C/C=C/[C@H](C)[C@H](O)[C@@H](C)[C@@H](O)[C@@H](C)[C@H](OC(=O)c2ncccn2)[C@@H]1C)C4=O [UMN92]
highest

Let us now turn to CO[C@H]1/C=C/O[C@@]2(C)Oc3c(C)c(O)c4c(c3C2=O)C2=NC3(CCN(CC(C)C)CC3)NC2=C(NC(=O)/C(C)=C/C=C/[C@H](C)[C@H](O)[C@@H](C)[C@@H](O)[C@@H](C)[C@H](OC(=O)c2ccncc2)[C@@H]1C)C4=O [UMN47]
middle

Let us now turn to CO[C@H]1/C=C/O[C@@]2(C)Oc3c(C)c(O)c4c(c3C2=O)C2=NC3(CCN(CC(C)C)CC3)NC2=C(NC(=O)/C(C)=C/C=C/[C@H](C)[C@H](O)[C@@H](C)[C@@H](O)[C@@H](C)[C@H](OC(=O)c2cncs2)[C@@H]1C)C4=O [UMN93]
middle

Let us now turn to CO[C@H]1/C=C/O[C@@]2(C)Oc3c(C)c(O)c4c(c3C2=O)C2=NC3(CCN(CC(C)C)CC3)NC2=C(NC(=O)/C(C)=C/C=C/[C@H](C)[C@H](O)[C@@H](C)[C@@H](O)[C@@H](C)[C@H](OC(=O)c2ccnnc2)[C@@H]1C)C4=O [UMN49]
highest
